Give abundance fitness for every item shown.
B1: DnaJ homolog subfamily C member 2, residues 451 to 503; numbered along this chain, Q99543 (parent)
chain: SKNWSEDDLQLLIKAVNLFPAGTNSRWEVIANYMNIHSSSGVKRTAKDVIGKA

Variants of: B1
test_method_notes: abundance fitness (aPCA) (normalised: wild type 0, dead -1); higher = more abundant; growth selection in yeast, the domain comes from the species named
experimental_conditions: Homo sapiens

Solved cases (4 shown):
# mutant_name, abundance fitness
measured = [
    ("I13V", -0.033),
    ("N3V", -0.227),
    ("K14S", -0.225),
    ("N35V", -0.815),
]

Moving on to the next variant.
For the variant shown here, "L18R" , give the reported abundance fitness. -0.145
